# TEST_SUMMARY: Visual appearance on storage (Example 3)
# Assay type: physicochemical
# CONDITION_NOTES: 3 months, 25° C./60% RH

{"COMPOUND": "CN1CCC23c4c5ccc(O)c4OC2C(OC2OC(C(=O)O)C(O)C(O)C2O)C=CC3C1C5.O=P(O)(O)O (centres unmarked) [Morphine-6-glucuronide phosphate]", "Appearance": "White crystalline powder"}
{"COMPOUND": "CN1CC[C@]23c4c5ccc(O)c4O[C@H]2[C@@H](O[C@@H]2O[C@H](C(=O)O)[C@@H](O)[C@H](O)[C@H]2O)C=C[C@H]3[C@H]1C5 [Morphine-6-glucuronide base, morphine-6-β-D-glucuronide]", "Appearance": "White crystalline powder"}

---

# TEST_SUMMARY: Stability indicating HPLC assay and related substances on storage (Example 3)
# Assay type: physicochemical
# CONDITION_NOTES: Initial
# Protocol: Assay (% w/w) and related substances determination Each test material was stored between 2-8*C prior to placing on stability. Each material was sub-divided into 900 mg aliquots, transferred to brown opaque HDPE plastic bottles and flushed with Argon prior to sealing. Sufficient samples were provided for each time point as well as spares for each storage condition. The samples were placed in appropriate incubators previously commissioned at storage conditions 25° C./60% RH, 40° C./75% RH and 60° C. […]
PROPERTY_NAME: M6G Assay, As is basis (% w/w)
Use % w/w as the unit, but write only the number.

The following molecules have reported results that may help.
{"MOLECULE": "Br.CN1CC[C@]23c4c5ccc(O)c4O[C@H]2[C@@H](O[C@@H]2O[C@H](C(=O)O)[C@@H](O)[C@H](O)[C@H]2O)C=C[C@H]3[C@H]1C5 [Morphine-6-glucuronide hydrobromide]", "M6G Assay, As is basis (% w/w)": 82.26}
{"MOLECULE": "CN1CC[C@]23c4c5ccc(O)c4O[C@H]2[C@@H](O[C@@H]2O[C@H](C(=O)O)[C@@H](O)[C@H](O)[C@H]2O)C=C[C@H]3[C@H]1C5 [Morphine-6-glucuronide base, morphine-6-β-D-glucuronide]", "M6G Assay, As is basis (% w/w)": 91.07}
{"MOLECULE": "CN1CC[C@]23c4c5ccc(O)c4O[C@H]2[C@@H](O[C@@H]2O[C@H](C(=O)O)[C@@H](O)[C@H](O)[C@H]2O)C=C[C@H]3[C@H]1C5.Cl [Morphine-6-glucuronide hydrochloride]", "M6G Assay, As is basis (% w/w)": 81.63}

API: the following record is the query input.
### Prompt What value of measured M6G Assay, As is basis is listed for CN1CCC23c4c5ccc(O)c4OC2C(OC2OC(C(=O)O)C(O)C(O)C2O)C=CC3C1C5.CN1CCC23c4c5ccc(O)c4OC2C(OC2OC(C(=O)O)C(O)C(O)C2O)C=CC3C1C5.O=C(O)C=CC(=O)O (stereo not shown) [Morphine-6-glucuronide fumarate] ?
### Response 84.11

---

# TEST_SUMMARY: Stability indicating HPLC assay and related substances on storage (Example 3)
# Format: physicochemical
# CONDITION_NOTES: 3 months, 25° C./60% RH
Returns one of met or not met; met when Known Related Substances HN33177 is >= 0.8%.

Worked set:
{"COMPOUND": "CN1CCC23c4c5ccc(O)c4OC2C(OC2OC(C(=O)O)C(O)C(O)C2O)C=CC3C1C5.CN1CCC23c4c5ccc(O)c4OC2C(OC2OC(C(=O)O)C(O)C(O)C2O)C=CC3C1C5.O=C(O)C=CC(=O)O (stereo not shown) [Morphine-6-glucuronide fumarate]", "CAT": "not met"}
{"COMPOUND": "CN1CCC23c4c5ccc(O)c4OC2C(OC2OC(C(=O)O)C(O)C(O)C2O)C=CC3C1C5.CN1CCC23c4c5ccc(O)c4OC2C(OC2OC(C(=O)O)C(O)C(O)C2O)C=CC3C1C5.O=C(O)C=CC(=O)O (stereo not shown) [Morphine-6-glucuronide maleate]", "CAT": "not met"}

### Prompt hey, is Known Related Substances HN33177 for this one >= 0.8%? Br.CN1CC[C@]23c4c5ccc(O)c4O[C@H]2[C@@H](O[C@@H]2O[C@H](C(=O)O)[C@@H](O)[C@H](O)[C@H]2O)C=C[C@H]3[C@H]1C5 [Morphine-6-glucuronide hydrobromide]
### Response not met

---

# TEST_SUMMARY: Visual appearance on storage (Example 3)
# Type: physicochemical
# CONDITION_NOTES: 1 month, 25° C./60% RH
PROPERTY_NAME: Appearance

{"MOLECULE": "CN1CC[C@]23c4c5ccc(O)c4O[C@H]2[C@@H](O[C@@H]2O[C@H](C(=O)O)[C@@H](O)[C@H](O)[C@H]2O)C=C[C@H]3[C@H]1C5 [Morphine-6-glucuronide base, morphine-6-β-D-glucuronide]", "PROPERTY_NAME": "Appearance", "TEST_VALUE": "White crystalline powder"}
{"MOLECULE": "CN1CCC23c4c5ccc(O)c4OC2C(OC2OC(C(=O)O)C(O)C(O)C2O)C=CC3C1C5.O=P(O)(O)O (stereo not drawn) [Morphine-6-glucuronide phosphate]", "PROPERTY_NAME": "Appearance", "TEST_VALUE": "White crystalline powder"}
{"MOLECULE": "CN1CCC23c4c5ccc(O)c4OC2C(OC2OC(C(=O)O)C(O)C(O)C2O)C=CC3C1C5.CN1CCC23c4c5ccc(O)c4OC2C(OC2OC(C(=O)O)C(O)C(O)C2O)C=CC3C1C5.O=S(=O)(O)O (stereo not drawn) [Morphine-6-glucuronide sulphate]", "PROPERTY_NAME": "Appearance", "TEST_VALUE": "White crystalline powder"}

---

# TEST_SUMMARY: Stability indicating HPLC assay and related substances on storage (Example 3)
# Assay type: physicochemical
# CONDITION_NOTES: Initial
PROPERTY_NAME: M6G Assay, Anhydrous basis (% w/w)
Use % w/w as the unit, but write only the number.

The following compounds have reported results that may help.
{"COMPOUND": "CN1CCC23c4c5ccc(O)c4OC2C(OC2OC(C(=O)O)C(O)C(O)C2O)C=CC3C1C5.CN1CCC23c4c5ccc(O)c4OC2C(OC2OC(C(=O)O)C(O)C(O)C2O)C=CC3C1C5.O=C(O)C=CC(=O)O (stereo not shown) [Morphine-6-glucuronide maleate]", "PROPERTY_NAME": "M6G Assay, Anhydrous basis", "UNIT_DESCRIPTOR": "% w/w", "TEST_VALUE": 88.28}
{"COMPOUND": "CN1CC[C@]23c4c5ccc(O)c4O[C@H]2[C@@H](O[C@@H]2O[C@H](C(=O)O)[C@@H](O)[C@H](O)[C@H]2O)C=C[C@H]3[C@H]1C5 [Morphine-6-glucuronide base, morphine-6-β-D-glucuronide]", "PROPERTY_NAME": "M6G Assay, Anhydrous basis", "UNIT_DESCRIPTOR": "% w/w", "TEST_VALUE": 99.79}
{"COMPOUND": "Br.CN1CC[C@]23c4c5ccc(O)c4O[C@H]2[C@@H](O[C@@H]2O[C@H](C(=O)O)[C@@H](O)[C@H](O)[C@H]2O)C=C[C@H]3[C@H]1C5 [Morphine-6-glucuronide hydrobromide]", "PROPERTY_NAME": "M6G Assay, Anhydrous basis", "UNIT_DESCRIPTOR": "% w/w", "TEST_VALUE": 83.63}
{"COMPOUND": "CN1CC[C@]23c4c5ccc(O)c4O[C@H]2[C@@H](O[C@@H]2O[C@H](C(=O)O)[C@@H](O)[C@H](O)[C@H]2O)C=C[C@H]3[C@H]1C5.Cl [Morphine-6-glucuronide hydrochloride]", "PROPERTY_NAME": "M6G Assay, Anhydrous basis", "UNIT_DESCRIPTOR": "% w/w", "TEST_VALUE": 93.28}

### Prompt What value of measured M6G Assay, Anhydrous basis is listed for CN1CCC23c4c5ccc(O)c4OC2C(OC2OC(C(=O)O)C(O)C(O)C2O)C=CC3C1C5.CN1CCC23c4c5ccc(O)c4OC2C(OC2OC(C(=O)O)C(O)C(O)C2O)C=CC3C1C5.O=C(O)C=CC(=O)O (stereo not shown) [Morphine-6-glucuronide fumarate] ?
### Response 89.44

### Prompt Also CN1CCC23c4c5ccc(O)c4OC2C(OC2OC(C(=O)O)C(O)C(O)C2O)C=CC3C1C5.CN1CCC23c4c5ccc(O)c4OC2C(OC2OC(C(=O)O)C(O)C(O)C2O)C=CC3C1C5.O=S(=O)(O)O (stereo not shown) [Morphine-6-glucuronide sulphate] ?
### Response 88.49

### Prompt Also CN1CCC23c4c5ccc(O)c4OC2C(OC2OC(C(=O)O)C(O)C(O)C2O)C=CC3C1C5.O=P(O)(O)O (stereo not shown) [Morphine-6-glucuronide phosphate] ?
### Response 89.21

---

# TEST_SUMMARY: Stability indicating HPLC assay and related substances on storage (Example 3)
# Format: physicochemical
# CONDITION_NOTES: 3 months, 40° C./75% RH
Lab note: cut-off is 2%. Strictly less in Known Related Substances HN67003 is Yes. Exactly 2% or more is No.

Worked set:
{"COMPOUND": "CN1CCC23c4c5ccc(O)c4OC2C(OC2OC(C(=O)O)C(O)C(O)C2O)C=CC3C1C5.O=P(O)(O)O (stereo not drawn) [Morphine-6-glucuronide phosphate]", "CAT": "Yes"}
{"COMPOUND": "CN1CC[C@]23c4c5ccc(O)c4O[C@H]2[C@@H](O[C@@H]2O[C@H](C(=O)O)[C@@H](O)[C@H](O)[C@H]2O)C=C[C@H]3[C@H]1C5.Cl [Morphine-6-glucuronide hydrochloride]", "CAT": "No"}
{"COMPOUND": "CN1CCC23c4c5ccc(O)c4OC2C(OC2OC(C(=O)O)C(O)C(O)C2O)C=CC3C1C5.CN1CCC23c4c5ccc(O)c4OC2C(OC2OC(C(=O)O)C(O)C(O)C2O)C=CC3C1C5.O=S(=O)(O)O (stereo not drawn) [Morphine-6-glucuronide sulphate]", "CAT": "Yes"}

### Prompt Strictly below 2%: is that where Known Related Substances HN67003 of CN1CCC23c4c5ccc(O)c4OC2C(OC2OC(C(=O)O)C(O)C(O)C2O)C=CC3C1C5.CN1CCC23c4c5ccc(O)c4OC2C(OC2OC(C(=O)O)C(O)C(O)C2O)C=CC3C1C5.O=C(O)C=CC(=O)O (stereo not drawn) [Morphine-6-glucuronide fumarate] sits?
### Response Yes

### Prompt Also CN1CCC23c4c5ccc(O)c4OC2C(OC2OC(C(=O)O)C(O)C(O)C2O)C=CC3C1C5.CN1CCC23c4c5ccc(O)c4OC2C(OC2OC(C(=O)O)C(O)C(O)C2O)C=CC3C1C5.O=C(O)C=CC(=O)O (stereo not drawn) [Morphine-6-glucuronide maleate] ?
### Response Yes

### Prompt Also CN1CC[C@]23c4c5ccc(O)c4O[C@H]2[C@@H](O[C@@H]2O[C@H](C(=O)O)[C@@H](O)[C@H](O)[C@H]2O)C=C[C@H]3[C@H]1C5 [Morphine-6-glucuronide base, morphine-6-β-D-glucuronide] ?
### Response Yes

Just for reference, patent US20060166900A1 is where these values come from.
